- Tested on: 242566-281-R-J2-PDC complex spheroid viability;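 also: spheroids exposed to compound for 7 days before readout; 100% = DMSO vehicle control wells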
- method-description: Anticancer human tumor 242566-281-R-J2-PDC patient-derived pancreatic carcinoma cell line growth inhibition [RAS]
- test-conditions: second compound 0.00316 µM; first compound 3.16 µM; stronger effect = lower value
Kindly state viability, T/C for each of the entries shown.
Your answer should be a plain number; it is taken to be in %.

According to the records, this molecule CCC(CC)c1cc(NC2CCC(N)C2)n2nccc2n1 (stereo not given) + C=CC(=O)N1CCN(c2nc(OCC3CCCN3C)nc3c(F)c(-c4nc(N)cc(C)c4C(F)(F)F)c(Cl)cc23)C(C)C1 displays viability, T/C of 72.6

According to the records, this molecule Cc1nc(N2CCC3(CC2)COC(C)C3N)c(CO)nc1Sc1ccnc(N)c1Cl (stereo not given) + C=CC(=O)N1CCN(c2nc(OCC3CCCN3C)nc3c(F)c(-c4nc(N)cc(C)c4C(F)(F)F)c(Cl)cc23)C(C)C1 displays viability, T/C of 104

According to the records, this molecule CC(C)NCC(C(=O)N1CCN(c2ncnc3c2C(C)CC3O)CC1)c1ccc(Cl)cc1 (stereo not given) + C=CC(=O)N1CCN(c2nc(OCC3CCCN3C)nc3c(F)c(-c4nc(N)cc(C)c4C(F)(F)F)c(Cl)cc23)C(C)C1 displays viability, T/C of 81.9

According to the records, this molecule CC1(O)CCCC1n1c(=O)c(C(F)F)cc2cnc(NC3CCN(S(C)(=O)=O)CC3)nc21 (stereo not given) + C=CC(=O)N1CCN(c2nc(OCC3CCCN3C)nc3c(F)c(-c4nc(N)cc(C)c4C(F)(F)F)c(Cl)cc23)C(C)C1 displays viability, T/C of 112

According to the records, this molecule CC(=O)OC12COC1CC(O)C1(C)C(=O)C(O)C3=C(C)C(OC(=O)C(O)C(NC(=O)OC(C)(C)C)c4ccccc4)CC(O)(C(OC(=O)c4ccccc4)C21)C3(C)C (stereo not given) + C=CC(=O)N1CCN(c2nc(OCC3CCCN3C)nc3c(F)c(-c4nc(N)cc(C)c4C(F)(F)F)c(Cl)cc23)C(C)C1 displays viability, T/C of 54.5
